Target: α-synuclein (AS) filaments (Homo sapiens, UniProt P37840)
measurementType: Kd (nM)
Answer in nM, number only, no unit symbol.

What value of Kd has been recorded for this entry: CNc1ccc(-c2nc3ccc(O)cc3s2)cc1 [PIB]
4.16
